- MEASURED ON: HRgpA-6H (Porphyromonas gingivalis) (UniProt P28784)
- PROCEDURE TEXT: ELISA, coated HRgpA-6H
Criterion: OD450 nm meeting or surpassing 0.6. Met: fulfilled. Not met: not fulfilled.

{"BINDER": "KB001 mouse Fab VL S32G (Fab, V domains shown) VH: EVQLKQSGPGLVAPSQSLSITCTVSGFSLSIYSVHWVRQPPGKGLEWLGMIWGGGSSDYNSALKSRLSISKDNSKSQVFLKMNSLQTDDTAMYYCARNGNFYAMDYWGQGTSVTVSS VL: QIVLTQSPAIMSASLGERVTMTCTASSSVSSGFLHWYQQKPGSSPQLWIYSTSNLASGVPARFSGSGSGTSYSLTISSMEAEDAATYYCHQYHHSPYIYTFGGGTKLEIK", "LABEL CLASS": "fulfilled"}
{"BINDER": "KB001 mouse Fab VL S32W (Fab, V domains shown) VH: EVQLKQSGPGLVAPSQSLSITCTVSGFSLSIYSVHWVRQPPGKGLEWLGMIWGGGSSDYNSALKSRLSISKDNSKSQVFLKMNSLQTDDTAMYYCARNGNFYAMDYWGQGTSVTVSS VL: QIVLTQSPAIMSASLGERVTMTCTASSSVSSWFLHWYQQKPGSSPQLWIYSTSNLASGVPARFSGSGSGTSYSLTISSMEAEDAATYYCHQYHHSPYIYTFGGGTKLEIK", "LABEL CLASS": "fulfilled"}
{"BINDER": "KB001 mouse Fab VH S30L (Fab, V domains shown) VH: EVQLKQSGPGLVAPSQSLSITCTVSGFSLLIYSVHWVRQPPGKGLEWLGMIWGGGSSDYNSALKSRLSISKDNSKSQVFLKMNSLQTDDTAMYYCARNGNFYAMDYWGQGTSVTVSS VL: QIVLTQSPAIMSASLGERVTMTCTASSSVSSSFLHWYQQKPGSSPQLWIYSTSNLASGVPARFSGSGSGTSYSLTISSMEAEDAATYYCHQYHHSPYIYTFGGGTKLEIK", "LABEL CLASS": "not fulfilled"}
